experimental.protocol: CC50 assay (CellTiter-Glo) in Huh-7 HCV replicon cells
Assay type: cell-based
setup.conditions: human, Table 2, 3 days incubation
We begin with a simple list: items and their reported CC50 at 3 days.
reported.metric: CC50 at 3 days

compound="NS(=O)(=O)c1cc(Cl)cc(CNc2nc(NC3(C(F)(F)F)CC3)c3nc(-c4ccc(N5CNCC5=O)cc4)ccc3n2)c1 [Example 45]" endpoint_result="1 to 10 µM"
compound="C#Cc1ccc2nc(NCc3ccc(-n4cncn4)cc3)nc(N[C@@H](C)C(F)(F)F)c2n1 [Example 291]" endpoint_result="> 10 µM"
compound="CC(C)Oc1ccc(-c2ccc3nc(N[C@H](C)Cn4cncn4)nc(NCC(F)(F)F)c3n2)cn1 [Example 241]" endpoint_result="> 10 µM"
compound="NS(=O)(=O)c1ccc(CNc2nc(NC3(C(F)(F)F)CC3)c3nc(C#CC4CC4)ccc3n2)cc1 [Example 92]" endpoint_result="1 to 10 µM"
compound="COc1ccc(-c2ccc3nc(NCc4cc(F)cc(F)c4)nc(NC4(C(F)(F)F)CC4)c3n2)cc1S(C)(=O)=O [Example 40]" endpoint_result="1 to 10 µM"
compound="COc1ccc(-c2ccc3nc(NCc4ccc(S(N)(=O)=O)c(Cl)c4)nc(NCC(F)(F)F)c3n2)cc1S(C)(=O)=O [Example 147]" endpoint_result="> 10 µM"
compound="CS(=O)(=O)c1cccc(-c2ccc3nc(NCc4ccc(-n5cncn5)cc4)nc(NCC(F)(F)Cl)c3n2)c1 [Example 196]" endpoint_result="> 10 µM"
